The origin of these recorded values is PubChem BioAssay (NCI).

System: HT29 colon
Test: NCI-60 one-dose screen, 48 h (100 = growth as untreated, 0 = no growth, -100 = all killed)
Conditions: 10 µM unless noted
Compounds without any hit were thinned out: in the full panel of roughly 83,000, 20% have a hit.
result-type: growth (%)
Use % as the unit, but write only the number.

molecule: CC[C@]12CC(C(=O)OC)=C3Nc4ccccc4[C@@]34CCN(C14)[C@@H]1c3cc4c(cc3O[C@@H]1[C@H]2O)NC1=C(C(=O)OC)C[C@@]2(CC)C3N(CC[C@@]143)C[C@H]1O[C@H]12 (stereo partly specified)
assay-result: 12.2
--
molecule: O=C(/C=C/c1ccc(F)cc1)Nc1cccc2cccnc12
assay-result: 105
--
molecule: C#CCN(C)CCCOc1ccc(NCc2ccc(/C=C/C(=O)NO)cc2)cc1Cl
assay-result: 8.52
--
molecule: C[C@@H]1OCC2(CCN(c3cnc(C(=O)Nc4cc(F)cc5cccnc45)cn3)CC2)[C@@H]1N
assay-result: 32.4
--
molecule: CN1CCN(Cc2ccc(/C=N/Nc3ccnc4cc(Cl)ccc34)cc2)CC1
assay-result: 42.5
--
molecule: N#Cc1c(-c2cccs2)cc(-c2cnccn2)nc1SCC(=O)N/N=C/c1ccccc1
assay-result: 37.3
--
molecule: COc1cc(-c2nc(-c3ccccc3)[nH]c2-c2ccnc(NCCCNS(=O)(=O)c3cccc(F)c3)n2)ccc1F
assay-result: 83.2
--
molecule: CC[C@H](CC[C@@H](C)[C@H]1CC[C@H]2[C@@H]3CC(=O)C4=CC(=O)/C(=C/c5ccc([N+](=O)[O-])cc5)C[C@]4(C)[C@H]3CC[C@]12C)C(C)C
assay-result: 104
--
molecule: N/C(=N\C(N)=N\c1nc2ccccc2s1)c1ccc(Cl)cc1
assay-result: 98.4
--
molecule: O=c1nc(Nc2ccc([N+](=O)[O-])cc2O)sc2ccccc12
assay-result: 81.7

Task: Please report the recorded growth for CCOC(=O)c1ccc(NC2=CC(=O)C(C)=C(C)C2=O)cc1 .
Output: 110

Task: Further, for O=C(CCCCCCN1CC(=O)N2[C@@H](C3CC3)c3[nH]c4ccccc4c3C[C@H]2C1=O)NO ?
Output: 78.3

Task: Further, for Clc1cccc(/C=N/Nc2nc(N/N=C/c3cccc(Cl)c3)nc(N3CCOCC3)n2)c1 ?
Output: 8.21

Task: Further, for Cc1[nH]c(C(=O)Nc2ccccc2OCc2cccc(C(=O)NC3CCCNC3)c2)c(Cl)c1Cl (stereo unspecified) ?
Output: -58.9

Task: Further, for Brc1cccc(-c2cc(-c3cnc4c(c3)OCCO4)n[nH]2)c1 ?
Output: 18.8

----------
Tested on: CAKI-1 renal
Test: NCI-60 one-dose screen, 48 h
Conditions: 10 µM unless noted
The panel holds about 83,000 compounds, 20% with a hit somewhere; the sample as a whole holds those more often. Calls of active or inactive are those of the source. Rule for the calls: active = growth percent below 10; inactive = the rest.
Return exactly one item of 1 for active, -1 for inactive

Record excerpt, results attached:
smiles-record: CN1c2ccccc2Sc2cc(/C=N/Nc3ccnc4cc(Cl)ccc34)ccc21
discrete-label: -1

smiles-record: O=C(/C=C/c1csc(Br)n1)NO
discrete-label: -1

smiles-record: CC1=C(C)C(=O)C(Nc2ccc(C)cc2)=C(Br)C1=O
discrete-label: -1

smiles-record: O=C(CSc1nc2ccccc2c(=O)n1-c1ccccc1)N/N=C/c1ccc(Oc2ccc(Cl)cc2)cc1
discrete-label: -1

smiles-record: CC1=C(C)C(=O)C(Nc2cccc(C)c2)=C(Br)C1=O
discrete-label: -1

Task: Test call, this compound: CCCCOc1ccc(S(=O)(=O)N2CCN(c3nc(C)cc(N4CCOCC4)n3)CC2)cc1
Output: -1

Task: Further, for O=C(NCCNc1cc(-c2cn(-c3ccccc3)nc2-c2cccc(O)c2)ccn1)Nc1cc(C(F)(F)F)cc(C(F)(F)F)c1 ?
Output: -1

Task: Further, for O=C1[C@@H]2Cc3c([nH]c4ccccc34)[C@@H](c3ccc(Cl)cc3)N2C(=O)CN1C1CCN(Cc2ccccc2)CC1 ?
Output: -1

Task: Further, for C#Cc1nc(C(=O)NCCCCCCC(=O)NO)cs1 ?
Output: 1

Task: Further, for O=S(=O)(NCCCNc1nccc(-c2[nH]c(-c3ccccc3)nc2-c2ccc(F)c(O)c2)n1)c1ccccc1 ?
Output: -1

Task: Further, for N#Cc1c(-c2cccs2)cc(-c2cnccn2)nc1SCC(=O)N/N=C/c1cccs1 ?
Output: -1

----------
Tested on: KM12 colon
Assay: NCI-60 one-dose screen, 48 h (100 = growth as untreated, 0 = no growth, -100 = all killed)
Settings: 10 µM unless noted
About 83,000 compounds went through this panel and 20% of them were active in at least one assay; those are over-represented in the sample as a whole.
Below is a list of entries, each paired with its recorded growth value.
Use % as the unit, but write only the number.

compound: O=C(CCl)Nc1ccc(NC(=O)c2cc(Cl)ccc2O)c(Cl)c1
assay-result: 75.8

compound: COc1ccc(C2CC(c3cccc(OCCCCOc4cccc(C5=NOC(c6ccc(OC)cc6)C5)c4)c3)=NO2)cc1 (stereo not given)
assay-result: 76.2

compound: O=C(CSc1cc[n+](CCCCO)c2ccccc12)n1ccc2ccccc21
assay-result: 96.9

compound: CCNC(=O)Oc1ccc(/C(=C(/C)c2ccc(Cl)cc2)c2ccc(OCCN3CCCCCC3)cc2)cc1
assay-result: 12.7

compound: O=C1[C@H]2Cc3c([nH]c4ccccc34)[C@H](c3ccc(Br)cc3)N2C(=O)CN1C1CCN(CC2CCCCC2)CC1
assay-result: 77

Task: KM12 colon / growth / Cc1ccccc1N1CCN(C2=C(Cl)C(=O)c3ncccc3C2=O)CC1 : value?
Output: 87.2

Task: Further, for O=C(O)CC1CCN(c2ccc3nnc(Cl)n3n2)CC1 ?
Output: 98.1

Task: Further, for O=C(CSc1nnc(-c2ccc(Cl)cc2)n1-c1ccccc1)Nc1ccc(Cl)cc1 ?
Output: 57.6

Task: Further, for Cc1ccc(N2CCN(C3=C(Cl)C(=O)c4ncccc4C3=O)CC2)cc1 ?
Output: 80

Task: Further, for COc1ccccc1/C=C1\Oc2ccc(O)c(O)c2C1=O ?
Output: 99.7

----------
Test system: NCI-H522 lung
Assay: NCI-60 one-dose screen, 48 h (100 = growth as untreated, 0 = no growth, -100 = all killed)
Settings: 10 µM unless noted
Compounds without any hit were thinned out: in the full panel of roughly 83,000, 20% have a hit. Active and inactive are the calls of the source. Rule for the calls: active = growth percent below 10; inactive = the rest.
Below is a list of entries, each paired with its recorded growth value.

The examples below pair each entry with its known result.
compound: COc1ccc(N2CCN(C3=C(Cl)C(=O)c4ncccc4C3=O)CC2)cc1
system-under-test: NCI-H522 lung
assay-result: -9.71% (active)
--
compound: CCOC(=O)c1c(N)c(C#N)cn1Cc1ccc(Cl)cc1Cl
system-under-test: NCI-H522 lung
assay-result: 67.2% (inactive)
--
compound: CS(=O)(=O)c1nccc(-c2c(-c3cccc(OCc4ccc(Cl)c(C(F)(F)F)c4)c3)nc3sccn23)n1
system-under-test: NCI-H522 lung
assay-result: 80.1% (inactive)
--
compound: N#Cc1nc(-c2ccc(Cl)cc2)oc1N1CCC(S(=O)(=O)N2CCOCC2)CC1
system-under-test: NCI-H522 lung
assay-result: 87.2% (inactive)
--
compound: O=S(=O)(Oc1ccc(-c2cn3ccoc3n2)cc1)C1CCCCC1
system-under-test: NCI-H522 lung
assay-result: 87.9% (inactive)

Task: Please report the recorded growth for Brc1cccc(-c2cc(-c3ccc4c(c3)OC=CO4)[nH]n2)c1 .
Output: 29.4% (inactive)

Task: Further, for O=C1Nc2ccccc2/C1=C/c1ccc(OCC(=O)c2ccccc2)cc1 ?
Output: 104% (inactive)

Task: Further, for O=C(CCl)Nc1ccc(NC(=O)c2cc(Cl)ccc2O)c(Cl)c1 ?
Output: -22.6% (active)

Task: Further, for O=C(CSc1cc[n+](CCCCO)c2ccccc12)n1ccc2ccccc21 ?
Output: 99.4% (inactive)

Task: Further, for O=C1[C@@H]2Cc3c([nH]c4ccccc34)[C@H](c3ccc(Cl)cc3)N2C(=O)CN1C1CCN(Cc2ccccc2)CC1 ?
Output: 84.6% (inactive)

Task: Further, for NCCNC(=O)c1cccc(COc2ccccc2NC(=O)c2cc(Cl)c(Cl)[nH]2)c1 ?
Output: 104% (inactive)

Task: Further, for Cc1ccc(/C(N)=N/C(N)=N/c2nc3ccccc3s2)cc1 ?
Output: 100% (inactive)

Task: Further, for CCCCCCNC(=O)Oc1ccc(/C(=C(/C)c2ccc(OC)cc2)c2ccc(OCCN3CCCCCC3)cc2)cc1 ?
Output: 82.4% (inactive)

----------
Tested on: U251 CNS
Test: NCI-60 one-dose screen, 48 h
Details: 10 µM unless noted
This is part of a sample that, as a whole, favours compounds with a hit. Of some 83,000 tested, about 20% had one in any assay. Calls of active or inactive are those of the source. How the source made its calls: active means growth percent below 10; inactive means the rest.
Return exactly one item of active, inactive

smiles-record: Cc1ccc(N2CCN(C3=C(Cl)C(=O)c4ncccc4C3=O)CC2)cc1
discrete-label: inactive
//
smiles-record: CC(C)(C)c1cc(NC(=O)Nc2ccc(-c3cn4c5c(sc4n3)CCc3cn(CCCN4CCCCC4)cc3-5)cc2)no1
discrete-label: active
//
smiles-record: Cc1ccc(/C(N)=N/C(N)=N/c2nc3ccccc3s2)cc1
discrete-label: inactive
//
smiles-record: CCOP(=O)(OCC)OC[C@]12CCC(C)(C)C[C@H]1C1=CC[C@@H]3[C@@]4(C)CC[C@H](OP(=O)(OCC)OCC)C(C)(C)[C@@H]4CC[C@@]3(C)[C@]1(C)CC2
discrete-label: inactive
//
smiles-record: COC(=O)CCSC1=C(C)C(=O)c2ccccc2C1=O
discrete-label: inactive
//
smiles-record: Cc1cc(Br)ccc1-n1cc(C#N)c(N)c1C(=O)c1ccc(Br)cc1
discrete-label: inactive

Task: Test call, this molecule: CN1CCN(Cc2ccc(NC(=O)c3cncc(C#Cc4cnc(N)nc4)c3)cc2C(F)(F)F)CC1
Output: inactive

Task: Further, for Brc1ccc(-c2cc(-c3ccc4c(c3)OCCO4)n[nH]2)s1 ?
Output: inactive

Task: Further, for CCOC(=O)c1ccc(NC2=C(Cl)C(=O)c3nc(C)ccc3C2=O)cc1 ?
Output: inactive
